- Test system: EKVX NSCLC
- Assay name: NCI tumour cell line growth inhibition, 48 h
Observable: GI50

Field request: GI50 | item: CCN(CC)CCCC(C)Nc1nc(C)cc(Nc2ccc3nc(C)cc(N)c3c2)n1 (stereo not given)
53.3 µM

Field request: GI50 | item: CS(=O)(=O)CCNCc1ccc(-c2ccc3ncnc(Nc4ccc(OCc5cccc(F)c5)c(C(F)(F)F)c4)c3c2)o1
3.12 µM

Field request: GI50 | item: Fc1ccc(-c2ncn(C3CCNCC3)c2-c2ccnc(Oc3ccc(F)c(F)c3)n2)cc1
> 14.6 µM

Field request: GI50 | item: COc1cc(/C=C/c2cc(/C=C/c3ccc(O)c(OC)c3)nc(N)n2)ccc1O
2.22 µM

Field request: GI50 | item: Cc1nccc2c3ccc(OCc4cn(-c5ccc(Cl)cc5)nn4)cc3n(CCCc3ccccc3)c12
12.3 µM

###

Provide the recorded TGI for the entries that follow.
- Tested on: BT-549 breast
- Assay name: NCI tumour cell line growth inhibition, 48 h

Enter reported TGI observed with BT-549 breast for C/C1=C/C(C)CC(C)OC(=O)C(C)NC(=O)C(Cc2ccc(O)c(I)c2)N(C)C(=O)C(C)NC(=O)C(C)C1 (centres undefined)
0.737 µM

Enter reported TGI observed with BT-549 breast for CC(C)(C)c1cc2c(O)c(c1)Cc1cc(C(C#N)(Cc3ccc4ccccc4c3)Cc3ccc4ccccc4c3)cc(c1O)Cc1cc(C(C)(C)C)cc(c1O)Cc1cc(C(C#N)(Cc3ccc4ccccc4c3)Cc3ccc4ccccc4c3)cc(c1O)C2
> 100 µM

Enter reported TGI observed with BT-549 breast for CCN(CC)CCCC(C)Nc1nc(C)cc(Nc2ccc3nc(C)cc(N)c3c2)n1 (centres undefined)
56.7 µM

Enter reported TGI observed with BT-549 breast for CCOC(=O)Cc1csc2[n+]1C(=O)/C(=C\c1cccc(Cl)c1Cl)S2
49 µM

Enter reported TGI observed with BT-549 breast for Cc1cccc(CC(Cc2c(C)cccc2C(=O)O)C(=O)O)c1 (centres undefined)
> 100 µM

Enter reported TGI observed with BT-549 breast for COc1cc(/C=C2/SC(c3ccccc3)N(c3ccccc3)C2=O)cc(OC)c1OC (centres undefined)
> 100 µM

Enter reported TGI observed with BT-549 breast for COc1cc(Nc2ncc(F)c(Nc3ccc4c(n3)NC(=O)C(C)(C)O4)n2)cc(OC)c1OC
> 10 µM

Enter reported TGI observed with BT-549 breast for COC1=CC23CCCN2CCc2cc4c(cc2C3C1O)OCO4 (centres undefined)
> 100 µM

Enter reported TGI observed with BT-549 breast for CC(=O)Oc1ccc2c(c1)oc1c3ccc(OC(C)=O)cc3n(C)c(=O)c21
> 100 µM

Enter reported TGI observed with BT-549 breast for O=C(/C=C/C=C/c1c(C2CC2)nc2ccccc2c1-c1ccc(F)cc1)c1cccs1
5.07 µM

Enter reported TGI observed with BT-549 breast for O=C(O)Cc1ccc(Oc2nc3ccccc3nc2C(=O)O)cc1
> 100 µM

Enter reported TGI observed with BT-549 breast for O=C(NNC(c1ccccc1)C(F)(F)F)c1ccncc1 (centres undefined)
> 100 µM

Enter reported TGI observed with BT-549 breast for Cc1cc(O)c(C2=NN(c3ccc(S(N)(=O)=O)cc3)C(c3ccc(N(C)C)cc3)C2)c(C)c1Cl (centres undefined)
43.3 µM

Enter reported TGI observed with BT-549 breast for CCN(CC)c1ccc2c(c1)Oc1nc(N)c(C#N)c(N)c1C2Sc1ccc(OC)cc1 (centres undefined)
2.95 µM

Enter reported TGI observed with BT-549 breast for Cc1ccc([N+](=O)[O-])cc1S(=O)(=O)Nc1ccc(C2=NNC(c3ccccc3O)C2)cc1 (centres undefined)
63.5 µM

Enter reported TGI observed with BT-549 breast for COc1cc2c3c(n(CCCNCCCNCCCNCCCN)c(=O)c2cc1OC)-c1cc2c(cc1C3=O)OCO2
6.44 µM

Enter reported TGI observed with BT-549 breast for CCOP(=O)(C/C=C/Cn1nc(Br)c(=O)[nH]c1=O)OCC
> 100 µM

Enter reported TGI observed with BT-549 breast for CC(C)OP(=O)(OC(C)C)/C(C#N)=C/c1ccco1
> 100 µM

Enter reported TGI observed with BT-549 breast for COc1cc2c(cc1OC)C(OC)N(C)c1c-2ccc2cc3c(cc12)OCO3 (centres undefined)
> 75 µM

Enter reported TGI observed with BT-549 breast for Cc1cc(-c2nc3ccccc3s2)ccc1N
> 84.3 µM

Enter reported TGI observed with BT-549 breast for Cc1ccc(N=N/C(=N/NC(=O)c2cc(Cl)ccc2C(=O)c2ccccc2)c2ccc(N(CCC#N)CCC#N)cc2C)cc1
> 100 µM

Enter reported TGI observed with BT-549 breast for Cc1ccc(C(=O)Nc2ccc(S(=O)(=O)O)c3cc(S(=O)(=O)O)cc(S(=O)(=O)O)c23)cc1NC(=S)Nc1cc(C(=O)Nc2ccc(S(=O)(=O)O)c3cc(S(=O)(=O)O)cc(S(=O)(=O)O)c23)ccc1C
> 75 µM

Enter reported TGI observed with BT-549 breast for Cc1nc([C@H]2CC[C@H]3[C@@H]4CCC5=CC(=O)CC[C@]5(C)[C@H]4CC[C@]23C)cs1
8.97 µM

Enter reported TGI observed with BT-549 breast for CC(=O)Oc1cc2c(c3ncccc13)OC(C)(C)C2
> 100 µM

Enter reported TGI observed with BT-549 breast for N#CC(C#N)N=Nc1ccc(Br)cc1
31.5 µM

Enter reported TGI observed with BT-549 breast for Cc1cc(N=Nc2c(O)ccc3ccccc23)ccc1N=Nc1cccc([N+](C)(C)C)c1
15.7 µM

Enter reported TGI observed with BT-549 breast for N#CC(=C1CCCCC1)c1nc2ccccc2o1
89.1 µM

Enter reported TGI observed with BT-549 breast for COc1ccc2c(c1)/C(=C\c1c(C)nc3sc(C)cn13)C(=O)N2
45.8 µM

Enter reported TGI observed with BT-549 breast for O=C(CCCNc1nc(-c2ccccc2)cs1)c1cccs1
> 100 µM

Enter reported TGI observed with BT-549 breast for O=C(/C=N/O)Nc1cc(Cl)c(Cl)cc1Cl
89.3 µM

Enter reported TGI observed with BT-549 breast for O=C1O[C@H]2[C@H](O)[C@@H](OC(=O)c3cc(O)c(O)c4c3[C@@H]3C1=CC(=O)C(O)(O)C3(O)O4)[C@H](OC(=O)c1cc(O)c(O)c(O)c1)O[C@@H]2CO (some centres undefined)
> 100 µM

Enter reported TGI observed with BT-549 breast for CC(=O)NNc1nc(C)c(C(/C=C/c2ccc([N+](=O)[O-])cc2)=N/NC(N)=S)s1
> 100 µM

Enter reported TGI observed with BT-549 breast for Cn1c(-c2cccs2)cc(-c2cccs2)c1-c1ccco1
> 100 µM

Enter reported TGI observed with BT-549 breast for Brc1c(C#CCC(c2ccccc2)(c2ccccc2)c2ccccc2)ccc(C#CCC(c2ccccc2)(c2ccccc2)c2ccccc2)c1Br
> 100 µM

Enter reported TGI observed with BT-549 breast for O=Cc1ccc(-c2ccc(-c3nc4ccccc4o3)cc2)s1
52.6 µM

Enter reported TGI observed with BT-549 breast for C[C@]12Cc3cnn(-c4ccc(F)cc4)c3NC1CC[C@@H]1C2CC[C@@]2(C)C1CC[C@@H]2O (some centres undefined)
13.4 µM

Enter reported TGI observed with BT-549 breast for CN1CCN(c2cc(C(=O)Nc3cc4cc(-c5cnn(C)c5)ccc4cn3)ccn2)CC1
0.838 µM

Enter reported TGI observed with BT-549 breast for COc1cc(C)cc2c1c(=O)c1ccccc1n2C
> 100 µM

Enter reported TGI observed with BT-549 breast for O=C1NC(N2CCCCC2)=N/C1=C\c1cccs1
> 100 µM
